Biological target: mitochondrial pyruvate carrier (MPC) (Homo sapiens (Human), UniProt O95563+Q9Y5U8)
Sequence (Q9Y5U8 whole entry): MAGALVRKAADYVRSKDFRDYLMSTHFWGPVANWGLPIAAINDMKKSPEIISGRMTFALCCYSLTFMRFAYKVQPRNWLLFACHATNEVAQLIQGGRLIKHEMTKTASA
Sequence (O95563 whole entry): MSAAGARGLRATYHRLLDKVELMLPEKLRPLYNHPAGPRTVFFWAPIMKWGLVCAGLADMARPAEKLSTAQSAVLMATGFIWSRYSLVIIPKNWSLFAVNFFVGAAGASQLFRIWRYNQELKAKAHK
Experiment: BRET assay of MPC inhibitory activity in HEK cells
Details: HEK cells expressing MPC2-Rluc8 and MPC1-Venus; read-out: IC50 (MPC inhibition, BRET)
quantityName: IC50 (nM)
The answer is to be given in nM; state only the numeric part.

Per the record, `CN(CCOc1ccc(C[C@@H]2SC(=O)NC2=O)cc1)c1ccccn1` has IC50 of 2000

----------
Tested on: MDR1
Assay: MDCKII monolayer assay
Type: in vitro ADME
Settings: dog, MDCK; after 120 minutes, MDCKII-MDR1 and MDCKII-Mock; loss due to conversion to M-IV
quantityName: recovery at 120 min

Per the record, CC(=O)c1ccc(CCOc2ccc(CC3SC(=O)NC3=O)cc2)nc1 (stereo not shown) has recovery at 120 min of 30 to 60%

----------
Assay: Multiple ascending dose (MAD) study in human subjects
Format: in vivo
Details: in vivo; 135 mg, steady state day 8, human; read-out: mean Cmax ss
quantityName: Cmax (ng/mL)
The answer is to be given in ng/mL; state only the numeric part.

Per the record, CC(O)c1ccc(CCOc2ccc(CC3SC(=O)NC3=O)cc2)nc1.Cl (racemic) has Cmax of 9490
